Assay: Bioavailability studies
Format: in vivo, mice
Conditions: male, mouse, plasma; CD1 mice; intravenous 1 mg/kg, oral 10 mg/kg
# bioavailability values compiled below

# COMPOUND, UNITS, bioavailability
measured = [
    ("CCCCC1(CC)CN(c2ccccc2)c2cc(SC)c(OCC(C)(F)C(=O)O)cc2S(=O)(=O)C1 (single isomer, unassigned) [35, diastereomer 1]", "%", 8),
    ("CCCCC1(CC)CN(c2ccccc2)c2cc(SC)c(OCCC(=O)O)cc2S(=O)(=O)C1 (single isomer, unassigned)", "%", 102),
]

----------
# pIC50 values compiled below
Target: Human IBAT (Homo sapiens)
Construct: Puromycin-selected
Test: IBAT (h/m) assay, human IBAT-overexpressing cells, 3H-taurocholic acid uptake
Conditions: 0.25 μM 3H-taurocholic acid and 5 μM cold taurocholic acid, 20 minutes, read-out: hIBAT IC50
pIC50: −log10 of the molar value.

# COMPOUND, TARGET OR SYSTEM, pIC50
measured = [
    ("CCCCC1(CC)CN(c2ccc(F)cc2)c2cc(SC)c(OCCC(=O)O)cc2S(=O)(=O)C1 (racemic) [Example 37]", "Human IBAT (Homo sapiens)", 8.52),
    ("CCCCC1(CCCC)CN(c2ccccc2)c2cc(Cl)c(OCCC(=O)O)cc2S(=O)(=O)C1 [Example 8]", "Human IBAT (Homo sapiens)", 7.13),
    ("CCCCC1(CCCC)CN(c2ccccc2)c2cc(SC)c(OCC(C)(O)C(=O)O)cc2S(=O)(=O)C1 (single isomer, unassigned) [Example 21]", "Human IBAT (Homo sapiens)", 7.72),
    ("CCCCC1(CCCC)CN(c2ccc(F)cc2)c2cc(SC)c(OCCC(=O)O)cc2S(=O)(=O)C1 [Example 26]", "Human IBAT (Homo sapiens)", 8.00),
    ("CCCCC1(CCCC)CN(c2ccccc2)c2cc(OC)c(OCCC(=O)O)cc2S(=O)(=O)C1 [Example 45]", "Human IBAT (Homo sapiens)", 7.96),
    ("CCCC1(CC)CN(c2ccccc2)c2cc(SC)c(OCCC(=O)O)cc2S(=O)(=O)C1 (centres unmarked) [Example 27]", "Human IBAT (Homo sapiens)", 7.21),
    ("CCCCC1(CC)CN(c2ccccc2)c2cc(Cl)c(OC(C)CC(=O)O)cc2S(=O)(=O)C1 (single isomer, unassigned) [30, diastereomers 1 and 2]", "Human IBAT (Homo sapiens)", 7.44),
    ("CCCCC1(CCCC)CN(c2ccccc2)c2cc(SC)c(OCC(OC)C(=O)O)cc2S(=O)(=O)C1 (racemic) [Example 46]", "Human IBAT (Homo sapiens)", 7.59),
    ("CCCCC1(CCCC)CN(c2ccccc2)c2cc(SC)c(OCC(C)(O)C(=O)O)cc2S(=O)(=O)C1 (racemic) [Example 19]", "Human IBAT (Homo sapiens)", 7.41),
    ("CCCCC1(CCCC)CN(c2ccc(F)c(F)c2)c2cc(SC)c(OCCC(=O)O)cc2S(=O)(=O)C1 [Example 25]", "Human IBAT (Homo sapiens)", 7.74),
    ("CCCCC1(CC)CN(c2ccccc2)c2cc(SC)c(OCC(C)(O)C(=O)O)cc2S(=O)(=O)C1 (single isomer, unassigned) [48, diastereomer 2]", "Human IBAT (Homo sapiens)", 7.80),
    ("CCCCC1(CC)CN(c2ccccc2)c2cc(N(C)C)c(OCCC(=O)O)cc2S(=O)(=O)C1 (single isomer, unassigned) [Example 18]", "Human IBAT (Homo sapiens)", 7.28),
    ("CCCCC1(CCCC)CN(c2ccccc2)c2cc(Br)c(OCCC(=O)O)cc2S(=O)(=O)C1 [Example 4]", "Human IBAT (Homo sapiens)", 7.59),
    ("CCCCC1(CC)CN(c2ccccc2)c2cc(OC)c(OCCC(=O)O)cc2S(=O)(=O)C1 (racemic) [Example 43]", "Human IBAT (Homo sapiens)", 7.36),
    ("CCCCC1(C)CN(c2ccccc2)c2cc(SC)c(OCC(C)(O)C(=O)O)cc2S(=O)(=O)C1 (single isomer, unassigned) [33, diastereomer 1]", "Human IBAT (Homo sapiens)", 6.91),
    ("CCCCC1(CCCC)CN(c2ccccc2)c2cc(SC)c(OCC(O)C(=O)O)cc2S(=O)(=O)C1 (racemic) [Example 9]", "Human IBAT (Homo sapiens)", 8.52),
    ("CCCCC1(CC)CN(c2ccccc2)c2cc(SC)c(OCC(O)C(=O)O)cc2S(=O)(=O)C1 (single isomer, unassigned) [40, diastereomer 2]", "Human IBAT (Homo sapiens)", 7.62),
    ("CCCCC1(C)CN(c2ccccc2)c2cc(SC)c(OCC(O)C(=O)O)cc2S(=O)(=O)C1 (single isomer, unassigned) [32, diastereomer 2]", "Human IBAT (Homo sapiens)", 7.46),
    ("CCCCC1(CCCC)CN(c2ccccc2)c2cc(SC)c(OCC(O)C(=O)O)cc2S(=O)(=O)C1 (single isomer, unassigned) [Example 10]", "Human IBAT (Homo sapiens)", 9.00),
    ("CCCCC1(CC)CN(c2ccc(F)cc2)c2cc(SC)c(OCC(O)C(=O)O)cc2S(=O)(=O)C1 (single isomer, unassigned) [42, diastereomer 3]", "Human IBAT (Homo sapiens)", 9.30),
    ("CCCCC1(C)CN(c2ccccc2)c2cc(SC)c(OCCC(=O)O)cc2S(=O)(=O)C1 (single isomer, unassigned) [Example 23]", "Human IBAT (Homo sapiens)", 6.48),
    ("CCCCC1(CCCC)CN(c2ccccc2)c2cc(SC)c(OCC(C)(O)C(=O)O)cc2S(=O)(=O)C1 (single isomer, unassigned) [Example 20]", "Human IBAT (Homo sapiens)", 7.38),
    ("CCCCC1(CC)CN(c2ccccc2)c2cc(SC)c(OCCC(=O)O)cc2S(=O)(=O)C1 (racemic) [Example 12]", "Human IBAT (Homo sapiens)", 8.40),
    ("CCCCC1(CC)CN(c2ccccc2)c2cc(SC)c(OCC(O)C(=O)O)cc2S(=O)(=O)C1 (single isomer, unassigned) [40, diastereomer 4]", "Human IBAT (Homo sapiens)", 8.00),
    ("CCCCC1(CC)CN(c2ccccc2)c2cc(SC)c(OCC(N)C(=O)O)cc2S(=O)(=O)C1 (single isomer, unassigned) [36, diastereomer 2]", "Human IBAT (Homo sapiens)", 8.30),
    ("CCCCC1(CC)CN(c2ccc(F)cc2)c2cc(SC)c(OCC(O)C(=O)O)cc2S(=O)(=O)C1 (single isomer, unassigned) [42, diastereomer 1]", "Human IBAT (Homo sapiens)", 7.72),
]

----------
Molecular target: Human IBAT (Homo sapiens, UniProt Q12908)
Construct: expressed in transfected cells; Puromycin-selected
Sequence (Q12908 whole entry): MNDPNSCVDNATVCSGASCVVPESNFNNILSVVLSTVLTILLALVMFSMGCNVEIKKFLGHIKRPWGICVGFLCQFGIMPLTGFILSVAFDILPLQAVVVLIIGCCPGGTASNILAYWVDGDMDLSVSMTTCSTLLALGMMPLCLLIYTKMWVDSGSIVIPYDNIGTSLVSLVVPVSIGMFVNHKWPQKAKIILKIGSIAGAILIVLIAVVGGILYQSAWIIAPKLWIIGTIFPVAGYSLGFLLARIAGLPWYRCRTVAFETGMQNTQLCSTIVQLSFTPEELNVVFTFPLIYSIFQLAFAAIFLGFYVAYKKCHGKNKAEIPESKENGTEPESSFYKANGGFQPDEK
Assay: IBAT (h/m) assay, human IBAT-overexpressing cells, 3H-taurocholic acid uptake
Assay type: cell-based
Settings: 0.25 μM 3H-taurocholic acid and 5 μM cold taurocholic acid, 20 minutes, read-out: hIBAT IC50
# IC50 values compiled below
ATTRIBUTE MEASURED: IC50 (nM)

# COMPOUND, TARGET OR SYSTEM, ATTRIBUTE MEASURED, UNITS, VALUE REPORTED
measured = [
    ("CCCCC1(CCCC)CN(c2ccccc2)c2cc(SC)c(OCCC(=O)O)cc2S(=O)(=O)C1 [Example 15]", "Human IBAT (Homo sapiens, UniProt Q12908)", "IC50", "nM", 32),
    ("CCCCC1(C)CN(c2ccccc2)c2cc(SC)c(OCC(C)(O)C(=O)O)cc2S(=O)(=O)C1 (single isomer, unassigned) [33, diastereomer 2]", "Human IBAT (Homo sapiens, UniProt Q12908)", "IC50", "nM", 45),
    ("CCCCC1(CC)CN(c2ccccc2)c2cc(Cl)c(OCCC(=O)O)cc2S(=O)(=O)C1 (single isomer, unassigned) [Example 7]", "Human IBAT (Homo sapiens, UniProt Q12908)", "IC50", "nM", 418),
    ("CCCCC1(CC)CN(c2ccc(F)cc2)c2cc(SC)c(OCC(O)C(=O)O)cc2S(=O)(=O)C1 (single isomer, unassigned) [42, diastereomer 4]", "Human IBAT (Homo sapiens, UniProt Q12908)", "IC50", "nM", 1),
    ("CCCCC1(C)CN(c2ccccc2)c2cc(SC)c(OCCC(=O)O)cc2S(=O)(=O)C1 (single isomer, unassigned) [Example 24]", "Human IBAT (Homo sapiens, UniProt Q12908)", "IC50", "nM", 7),
    ("CCCCC1(CCCC)CN(c2ccccc2)c2cc(SC)c(OCC(O)C(=O)O)cc2S(=O)(=O)C1 (single isomer, unassigned) [Example 11]", "Human IBAT (Homo sapiens, UniProt Q12908)", "IC50", "nM", 4),
]

----------
# IC50 values compiled below
Target: Human IBAT (Homo sapiens, UniProt Q12908)
Construct: Puromycin-selected
Experiment: IBAT (h/m) assay, human IBAT-overexpressing cells, 3H-taurocholic acid uptake
Settings: 0.25 μM 3H-taurocholic acid and 5 μM cold taurocholic acid, 20 minutes, read-out: hIBAT IC50

# COMPOUND, TARGET OR SYSTEM, IC50, nM
rows = [
    ("CCCCC1(CC)CN(c2ccccc2)c2cc(Cl)c(OCCC(=O)O)cc2S(=O)(=O)C1 (single isomer, unassigned) [Example 6]", "Human IBAT (Homo sapiens, UniProt Q12908)", 17),
    ("CCCCC1(CC)CN(c2ccccc2)c2cc(Cl)c(OC(C)CC(=O)O)cc2S(=O)(=O)C1 (single isomer, unassigned) [30, diastereomer 2]", "Human IBAT (Homo sapiens, UniProt Q12908)", 52),
    ("CCCCC1(CC)CN(c2ccccc2)c2cc(OC)c(OCCC(=O)O)cc2S(=O)(=O)C1 (single isomer, unassigned) [44, enantiomer 2]", "Human IBAT (Homo sapiens, UniProt Q12908)", 392),
    ("CCCCC1(C)CN(c2ccccc2)c2cc(N(C)C)c(OCCC(=O)O)cc2S(=O)(=O)C1 (single isomer, unassigned) [29, enantiomer 1]", "Human IBAT (Homo sapiens, UniProt Q12908)", 5),
    ("CCCCC1(CC)CN(c2ccccc2)c2cc(SC)c(OCC(N)C(=O)O)cc2S(=O)(=O)C1 (single isomer, unassigned) [36, diastereomer 1]", "Human IBAT (Homo sapiens, UniProt Q12908)", 76),
    ("CCCCC1(CC)CN(c2ccccc2)c2cc(SC)c(OCC(C)(F)C(=O)O)cc2S(=O)(=O)C1 (single isomer, unassigned) [35, diastereomer 2]", "Human IBAT (Homo sapiens, UniProt Q12908)", 13),
    ("CCCCC1(CC)CN(c2ccccc2)c2cc(SC)c(OCC(C)(O)C(=O)O)cc2S(=O)(=O)C1 (single isomer, unassigned) [48, diastereomer 1]", "Human IBAT (Homo sapiens, UniProt Q12908)", 56),
]

Data credit: patent US11773071B2
